- tgt: T1, Recombinant human CD4 (R&D Systems, Cat. 10327-CD) (human, UniProt P01730 26-390, limits assumed)
- T1 construct: Bought reagent; also called huCD4
- measurement-protocol: BLI Octet, non-clonal supernatant on AMC sensor, 100 nM human CD4;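 further: hybridoma supernatants diluted 1:3, antibodies captured on AMC biosensors, association and dissociation with CD4 followed, curves smoothed and fit locally with 1:1 binding model for single-point kinetics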
observation-type: Response

Here are 4 binders together with their reported answers.
• 75110_03L12A (antibody, V domains shown, Tested as non-clonal AlivaMab Mouse Kappa hybridoma supernatant, captured by anti-mouse IgG Fc sensor) VH: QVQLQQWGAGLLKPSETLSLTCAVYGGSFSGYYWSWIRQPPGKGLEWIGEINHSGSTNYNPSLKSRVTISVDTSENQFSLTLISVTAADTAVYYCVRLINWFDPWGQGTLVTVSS VL: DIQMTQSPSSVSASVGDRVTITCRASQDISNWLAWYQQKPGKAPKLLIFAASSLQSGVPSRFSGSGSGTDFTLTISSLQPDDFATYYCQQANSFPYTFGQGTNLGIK = 0.21
• 75110_09G15A (antibody, V domains shown, Tested as non-clonal AlivaMab Mouse Kappa hybridoma supernatant, captured by anti-mouse IgG Fc sensor) VH: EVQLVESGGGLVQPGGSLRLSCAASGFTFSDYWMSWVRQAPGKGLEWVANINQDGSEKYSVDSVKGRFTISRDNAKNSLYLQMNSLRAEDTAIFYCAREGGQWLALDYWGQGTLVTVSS VL: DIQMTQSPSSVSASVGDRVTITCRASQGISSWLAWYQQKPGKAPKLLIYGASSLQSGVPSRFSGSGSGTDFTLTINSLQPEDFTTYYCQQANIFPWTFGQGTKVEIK = 0.1
• 75110_13P22A (antibody, V domains shown, Tested as non-clonal AlivaMab Mouse Kappa hybridoma supernatant, captured by anti-mouse IgG Fc sensor) VH: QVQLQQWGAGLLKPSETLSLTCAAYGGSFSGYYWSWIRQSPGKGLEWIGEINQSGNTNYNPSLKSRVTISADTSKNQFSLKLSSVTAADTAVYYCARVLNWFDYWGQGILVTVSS VL: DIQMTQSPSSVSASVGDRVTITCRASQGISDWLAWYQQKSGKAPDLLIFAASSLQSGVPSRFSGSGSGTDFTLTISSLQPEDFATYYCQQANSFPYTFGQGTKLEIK = 0.24
• 75110_05B13A (antibody, V domains shown, Tested as non-clonal AlivaMab Mouse Kappa hybridoma supernatant, captured by anti-mouse IgG Fc sensor) VH: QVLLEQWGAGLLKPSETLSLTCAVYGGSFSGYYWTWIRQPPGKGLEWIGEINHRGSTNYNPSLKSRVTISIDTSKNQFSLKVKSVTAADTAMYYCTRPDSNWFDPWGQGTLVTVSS VL: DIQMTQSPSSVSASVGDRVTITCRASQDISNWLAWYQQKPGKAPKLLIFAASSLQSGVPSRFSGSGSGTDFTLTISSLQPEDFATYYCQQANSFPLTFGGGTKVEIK = 0.03

Please look at the following binder next.
For 75110_09N20A (antibody, V domains shown, Tested as non-clonal AlivaMab Mouse Kappa hybridoma supernatant, captured by anti-mouse IgG Fc sensor) VH: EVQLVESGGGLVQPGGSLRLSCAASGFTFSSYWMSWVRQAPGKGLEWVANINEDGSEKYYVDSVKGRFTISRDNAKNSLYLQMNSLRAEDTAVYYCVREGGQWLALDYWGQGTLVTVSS VL: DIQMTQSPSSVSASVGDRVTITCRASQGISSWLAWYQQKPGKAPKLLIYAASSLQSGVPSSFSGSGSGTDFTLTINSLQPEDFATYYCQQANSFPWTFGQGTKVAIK the binder record lists Response as 0.13
